assay: 14-day repeat IV dose toxicity study with toxicokinetic evaluation on Day 1 and 14 in dogs; format: in vivo, beagle dogs; details: dog, in vivo, iv, 1 mg/kg/day, IV 1.0 mg/kg/day, male, Day 14, read-out: T1/2
Ends that are not written are not given here.
parameter: half-life

Tell me its half-life given AMVSEFLKQAWFIENEEQEYVQTLKSSKGGPGSAVSPYPTFNPSSDV-NH2 [Peptide 1] as the entry.
6.59 min

----------
assay: Clinical test in humans, three 30-min i.v. infusions 8 hours apart, plasma PK; format: in vivo; details: human, plasma, iv, 50 μg/kg, three 30-min i.v. infusions 8 h apart, 50 μg/kg each, mean, read-out: Cmax2
Ends that are not written are not given here.
parameter: Cmax (ng/mL)
Kindly provide the numeric value in ng/mL only, without the unit symbol.

Tell me its Cmax given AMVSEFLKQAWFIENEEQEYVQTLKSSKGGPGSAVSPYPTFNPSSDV-NH2 [Peptide 1] as the entry.
395

----------
Assay: 14-day repeat dose IV toxicity study with toxicokinetic evaluation on Day 1 and Day 14 in rats
Type: in vivo, Wistar rats
Details: rat, in vivo, iv, 1 mg/kg/day, IV 1.0 mg/kg/day, male, Day 14, read-out: T1/2
Procedure: Peptide 1 in blood samples collected from animals used in the studies (rat and dog) has been measured by an LC-MS/MS method. Analysis of samples collected in the pharmacokinetic study in rats was performed prior to validation of the method. Prior to analysis of samples from the GLP toxicology studies, the method was validated according to GLP to ensure that it is selective, accurate, reproducible, and able to produce reliable results. […]
Ends that are not written are not given here.
parameter: half-life (min)
Kindly provide the numeric value in min only, without the unit symbol.

Tell me its half-life given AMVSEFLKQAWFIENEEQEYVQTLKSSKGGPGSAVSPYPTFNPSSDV-NH2 [Peptide 1] as the entry.
7.66

----------
test: 14-day repeat dose IV toxicity study with toxicokinetic evaluation on Day 1 and Day 14 in rats; assay type: in vivo, Wistar rats; details: rat, in vivo, iv, 3 mg/kg/day, IV 3.0 mg/kg/day, male, Day 1
Ends that are not written are not given here.
parameter: clearance (mL/min/kg)
Kindly provide the numeric value in mL/min/kg only, without the unit symbol.

Tell me its clearance given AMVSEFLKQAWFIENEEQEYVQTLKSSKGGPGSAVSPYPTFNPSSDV-NH2 [Peptide 1] as the entry.
21.9

----------
test: Clinical test in humans, three 30-min i.v. infusions 8 hours apart, plasma PK; format: in vivo; details: human, plasma, iv, 140 μg/kg, three 30-min i.v. infusions 8 h apart, 140 μg/kg each, GM, read-out: Cmax1
Ends that are not written are not given here.
parameter: Cmax (ng/mL)
Kindly provide the numeric value in ng/mL only, without the unit symbol.

Tell me its Cmax given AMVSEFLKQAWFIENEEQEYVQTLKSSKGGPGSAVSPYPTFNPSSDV-NH2 [Peptide 1] as the entry.
1310

----------
assay: 14-day repeat IV dose toxicity study with toxicokinetic evaluation on Day 1 and 14 in dogs; type: in vivo, beagle dogs; conditions: dog, in vivo, 1 mg/kg, Group 2 (1 mg/kg), range over sexes and Days 1 and 14, read-out: AUCinf
Ends that are not written are not given here.
parameter: AUC(0-inf)

Tell me its AUC(0-inf) given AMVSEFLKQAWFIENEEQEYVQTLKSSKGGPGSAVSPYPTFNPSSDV-NH2 [Peptide 1] as the entry.
450 to 620 ng·h/mL

----------
experiment: Clinical test in humans, three 30-min i.v. infusions 8 hours apart, plasma PK; format: in vivo; conditions: human, plasma, iv, 200 μg/kg, three 30-min i.v. infusions 8 h apart, 200 μg/kg each, mean, read-out: Cmax1
Ends that are not written are not given here.
parameter: Cmax (ng/mL)
Kindly provide the numeric value in ng/mL only, without the unit symbol.

Tell me its Cmax given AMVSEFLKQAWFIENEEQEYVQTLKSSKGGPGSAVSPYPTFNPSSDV-NH2 [Peptide 1] as the entry.
2190

----------
experiment: Clinical test in humans, single 30-min i.v. infusion, plasma PK; format: in vivo; conditions: human, in vivo, iv, 150 ug/kg, single 30-min i.v. infusion 150 μg/kg, mean, read-out: t1/2 (converted)
Ends that are not written are not given here.
parameter: half-life (min)
Kindly provide the numeric value in min only, without the unit symbol.

Tell me its half-life given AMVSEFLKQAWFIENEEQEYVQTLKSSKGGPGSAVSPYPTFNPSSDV-NH2 [Peptide 1] as the entry.
69

----------
experiment: PK after single intravenous injection of Peptide 1 in male rats; design: species or system male Wistar (CRL: WI(Han)) rats; conditions: rat, in vivo, iv, single IV, both phases, range over 0.1-10 mg/kg, read-out: clearance
Ends that are not written are not given here.
parameter: clearance

Tell me its clearance given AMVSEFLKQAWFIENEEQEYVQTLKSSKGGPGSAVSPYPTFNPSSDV-NH2 [Peptide 1] as the entry.
8 to 11 mL/min/kg

----------
test: Clinical test in humans, three 30-min i.v. infusions 8 hours apart, plasma PK; assay type: in vivo; conditions: human, in vivo, iv, three 30-min i.v. infusions 8 h apart, 50 μg/kg each, mean, read-out: AUC0-tau3
Ends that are not written are not given here.
parameter: AUC (ng·h/mL)
Kindly provide the numeric value in ng·h/mL only, without the unit symbol.

Tell me its AUC given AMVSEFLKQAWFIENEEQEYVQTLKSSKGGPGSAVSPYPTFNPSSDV-NH2 [Peptide 1] as the entry.
541

----------
Experiment: Clinical test in humans, three 30-min i.v. infusions 8 hours apart, plasma PK
Assay type: in vivo
Settings: human, in vivo, iv, 250 ug/kg, three 30-min i.v. infusions 8 h apart, 250 μg/kg each, GM, read-out: Global Cmax
Description: A total of 8 subjects were included in each group. In each group, 6 subjects received the active treatment and 2 received the placebo. […] Plasma samples were analyzed for Peptide 1 using validated Liquid chromatography—Tandem Mass spectrometry (LC-MS/MS) methods by Charles River Laboratories (CRL). […]
Ends that are not written are not given here.
parameter: Cmax (ng/mL)
Kindly provide the numeric value in ng/mL only, without the unit symbol.

Tell me its Cmax given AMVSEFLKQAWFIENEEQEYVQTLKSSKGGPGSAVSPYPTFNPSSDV-NH2 [Peptide 1] as the entry.
2260

----------
assay: PK after single intravenous injection of Peptide 1 in male rats; parameters: species or system male Wistar (CRL: WI(Han)) rats; conditions: rat, in vivo, iv, 1 mg/kg, single IV 1.0 mg/kg, initial elimination phase, read-out: CL
Ends that are not written are not given here.
parameter: clearance (mL/min/kg)
Kindly provide the numeric value in mL/min/kg only, without the unit symbol.

Tell me its clearance given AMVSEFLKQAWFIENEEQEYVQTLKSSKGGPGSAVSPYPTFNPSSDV-NH2 [Peptide 1] as the entry.
8.08

----------
experiment: 14-day repeat dose IV toxicity study with toxicokinetic evaluation on Day 1 and Day 14 in rats; format: in vivo, Wistar rats; details: rat, in vivo, 10 mg/kg, Group 4 (10 mg/kg), range over sexes and Days 1 and 14
Ends that are not written are not given here.
parameter: C0

Tell me its C0 given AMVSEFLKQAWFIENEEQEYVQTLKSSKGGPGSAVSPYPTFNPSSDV-NH2 [Peptide 1] as the entry.
92.3 to 138 µg/mL

----------
assay: PK after single intravenous injection of Peptide 1 in male rats; parameters: species or system male Wistar (CRL: WI(Han)) rats; conditions: rat, in vivo, iv, single IV, initial phase, range over 0.1-10 mg/kg, read-out: half-life
Ends that are not written are not given here.
parameter: half-life

Tell me its half-life given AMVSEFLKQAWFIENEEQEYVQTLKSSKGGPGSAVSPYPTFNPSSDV-NH2 [Peptide 1] as the entry.
3 to 8 min

----------
Assay: Clinical test in humans, three 30-min i.v. infusions 8 hours apart, plasma PK
Type: in vivo
Conditions: human, in vivo, iv, 250 ug/kg, three 30-min i.v. infusions 8 h apart, 250 μg/kg each, mean, read-out: AUC0-t3
Method: A total of 8 subjects were included in each group. In each group, 6 subjects received the active treatment and 2 received the placebo. […] Plasma samples were analyzed for Peptide 1 using validated Liquid chromatography—Tandem Mass spectrometry (LC-MS/MS) methods by Charles River Laboratories (CRL). […]
Ends that are not written are not given here.
parameter: AUC (ng·h/mL)
Kindly provide the numeric value in ng·h/mL only, without the unit symbol.

Tell me its AUC given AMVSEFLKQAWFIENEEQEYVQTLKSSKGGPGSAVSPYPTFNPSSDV-NH2 [Peptide 1] as the entry.
2430

----------
test: Clinical test in humans, three 30-min i.v. infusions 8 hours apart, plasma PK; type: in vivo; settings: human, in vivo, iv, 200 ug/kg, three 30-min i.v. infusions 8 h apart, 200 μg/kg each, mean, read-out: AUC0-24
Ends that are not written are not given here.
parameter: AUC(0-t) (ng·h/mL)
Kindly provide the numeric value in ng·h/mL only, without the unit symbol.

Tell me its AUC(0-t) given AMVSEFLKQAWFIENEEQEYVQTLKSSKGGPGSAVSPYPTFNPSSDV-NH2 [Peptide 1] as the entry.
8120
